Provide the reported relative viability of each item.
- Tested on: NCI-H23
- test details: relative viability (nuclei count vs DMSO), 5 days (fraction); higher = more cells survive
- measurement parameters: first compound 0.08 µM
Enter a number only.

Quick check: relative viability on NCI-H23, item COc1nc(C)cnc1NS(=O)(=O)c1cccnc1-c1ccc(-c2nnco2)cc1 [Zibotentan] + NC(=O)Nc1cc(-c2cccc(F)c2)sc1C(=O)N[C@H]1CCCNC1 [AZD7762] (partner 0.2 µM) ?
0.224

Quick check: relative viability on NCI-H23, item COc1nc(C)cnc1NS(=O)(=O)c1cccnc1-c1ccc(-c2nnco2)cc1 [Zibotentan] + CC(C)C[C@H](NC(=O)[C@H](Cc1ccccc1)NC(=O)c1cnccn1)B(O)O [Bortezomib] (partner 0.002 µM) ?
1.25

Quick check: relative viability on NCI-H23, item COc1nc(C)cnc1NS(=O)(=O)c1cccnc1-c1ccc(-c2nnco2)cc1 [Zibotentan] + O=C(c1cc(Cc2n[nH]c(=O)c3ccccc23)ccc1F)N1CCN(C(=O)C2CC2)CC1 [Olaparib] (partner 8 µM) ?
0.266

Quick check: relative viability on NCI-H23, item O=c1cc(-c2cccc3c2Sc2ccccc2S3)oc(N2CCOCC2)c1 + Cc1nc(NC(=O)N2CCC[C@H]2C(N)=O)sc1-c1ccnc(C(C)(C)C(F)(F)F)c1 [Alpelisib] (partner 2 µM) ?
0.562

Quick check: relative viability on NCI-H23, item COc1nc(C)cnc1NS(=O)(=O)c1cccnc1-c1ccc(-c2nnco2)cc1 [Zibotentan] + Cc1nc(Nc2ncc(C(=O)Nc3c(C)cccc3Cl)s2)cc(N2CCN(CCO)CC2)n1 [Dasatinib] (partner 0.075 µM) ?
0.859
